Collected set of IC50 measured with Tyrosine-protein kinase JAK1 (Homo sapiens, UniProt P23458) across studies.

{"compound": "N#CCC1(n2cc(-c3ncnc4[nH]ccc34)cn2)CN(C2CCN(C(=O)c3cccc(C(F)(F)F)c3F)CC2)C1", "test target": "Tyrosine-protein kinase JAK1 (Homo sapiens, UniProt P23458)", "IC50": "≤ 5 nM"}
{"compound": "N#CC1CCN(S(=O)(=O)NC23CC(n4cnc5cnc6[nH]ccc6c54)(C2)C3)C1 (stereo not drawn)", "test target": "Tyrosine-protein kinase JAK1 (Homo sapiens, UniProt P23458)", "IC50": "8.3 nM"}
{"compound": "CN(c1ncnc2[nH]ccc12)N1CCC[C@@H](C(=O)NCC(F)(F)C(F)(F)F)C1 (single isomer, unassigned)", "test target": "Tyrosine-protein kinase JAK1 (Homo sapiens, UniProt P23458)", "IC50": "> 1000 nM"}
{"compound": "N#CCC1(n2cc(-c3ncnc4[nH]ccc34)cn2)CN(C2CCN(C(=O)c3ccccc3C#N)CC2)C1", "test target": "Tyrosine-protein kinase JAK1 (Homo sapiens, UniProt P23458)", "IC50": "5 to 20 nM"}
{"compound": "CCCn1nnc2cc(Nc3ncc(Cl)c(NC4CCN(c5ccc(C#N)nn5)CC4)n3)ccc21", "test target": "Tyrosine-protein kinase JAK1 (Homo sapiens, UniProt P23458)", "IC50": "0.9 nM"}
{"compound": "CN(C)Cc1cc(C(=O)N2CCC(N3CC(CC#N)(n4cc(-c5ncnc6[nH]ccc56)cn4)C3)CC2)cc(C(F)F)c1", "test target": "Tyrosine-protein kinase JAK1 (Homo sapiens, UniProt P23458)", "IC50": "≤ 5 nM"}
{"compound": "COCCC(C1CCOC1)n1cc(-c2nc(-c3cnn(C)c3)cc3nccn23)cn1 (stereo not drawn)", "test target": "Tyrosine-protein kinase JAK1 (Homo sapiens, UniProt P23458)", "IC50": "> 1000 nM"}
{"compound": "N#CCC1(n2cc(-c3ncnc4[nH]ccc34)cn2)CN(C2CCN(C(=O)Nc3ccccc3OC(F)F)CC2)C1", "test target": "Tyrosine-protein kinase JAK1 (Homo sapiens, UniProt P23458)", "IC50": "≤ 5 nM"}
{"compound": "CC1CC(N2CC(CC#N)(n3cc(-c4ncnc5[nH]ccc45)cn3)C2)CCN1Cc1ccc(N(C)C)c(C#N)c1F (single isomer, unassigned)", "test target": "Tyrosine-protein kinase JAK1 (Homo sapiens, UniProt P23458)", "IC50": "20 to 30 nM"}
{"compound": "Cc1cncc(C(=O)N2CC3(CC(N(C)c4ncnc5[nH]ccc45)C3)C2)n1", "test target": "Tyrosine-protein kinase JAK1 (Homo sapiens, UniProt P23458)", "IC50": "100 to 1000 nM"}
{"compound": "CN(c1ncnc2[nH]ccc12)C1CC2(C1)CN(C(=O)C1(C#N)CC1)C2", "test target": "Tyrosine-protein kinase JAK1 (Homo sapiens, UniProt P23458)", "IC50": "10 to 100 nM"}
{"compound": "C=CC(=O)N1CCC[C@@H](Nc2c(C(=O)OCC)cnc3[nH]ccc23)C1", "test target": "Tyrosine-protein kinase JAK1 (Homo sapiens, UniProt P23458)", "IC50": "100 to 1000 nM"}
{"compound": "Cc1cc(N(c2ncc(C)c(N3CC(CC#N)(NS(C)(=O)=O)C3)n2)S(C)(=O)=O)sn1", "test target": "Tyrosine-protein kinase JAK1 (Homo sapiens, UniProt P23458)", "IC50": "< 5000 nM"}
{"compound": "O=C(NCC1CC1(F)F)c1noc2c1CN(c1ncnc3[nH]ccc13)CC2 (stereo not drawn)", "test target": "Tyrosine-protein kinase JAK1 (Homo sapiens, UniProt P23458)", "IC50": "100 to 500 nM"}
{"compound": "N#CCC1(n2cc(-c3ncnc4[nH]ccc34)cn2)CN(C2CCN(C(=O)c3ccc(-c4ccccc4)cc3)CC2)C1", "test target": "Tyrosine-protein kinase JAK1 (Homo sapiens, UniProt P23458)", "IC50": "5 to 20 nM"}
